The reported measurements were obtained from patent US9682928B2.

Each entry below carries its reported Treated (AUC of licking time), Late Phase.
# Tested on: mouse
# ASSAY_DETAILS: Formalin test (acute/early and late phase) in mice
# Type: in vivo
# DETAILS: 150 mg/kg i.p., mice
MEASURE_NAME: Treated (AUC of licking time), Late Phase

MOLECULE | ASSAY_TARGET | ASSAY_RESULT
CCCCNc1cc(C(=O)NN2CCOCC2)cc(S(N)(=O)=O)c1Oc1ccccc1 [NTP-2024] | mouse | 76.39
CCCCNc1cc(C(=O)N(Cc2ccccc2)Cc2ccccc2)cc(S(N)(=O)=O)c1Oc1ccccc1 [NTP-2008] | mouse | 66.42
CCCCNc1cc(C(=O)OCOC(=O)C(C)(C)C)cc(S(N)(=O)=O)c1Oc1ccccc1 [NTP-2012] | mouse | 5.08
CCCCNc1cc(C(=O)OCC(=O)N(C)C)cc(S(N)(=O)=O)c1Oc1ccccc1 [NTP-2011] | mouse | 5.43

###

# ASSAY_TARGET: Na+K+Cl− co-transporter (Rattus norvegicus, UniProt E9PTX9)
# Construct: endogenous in cells; host or cells: A7r5 cells
# Sequence (E9PTX9 1-1203): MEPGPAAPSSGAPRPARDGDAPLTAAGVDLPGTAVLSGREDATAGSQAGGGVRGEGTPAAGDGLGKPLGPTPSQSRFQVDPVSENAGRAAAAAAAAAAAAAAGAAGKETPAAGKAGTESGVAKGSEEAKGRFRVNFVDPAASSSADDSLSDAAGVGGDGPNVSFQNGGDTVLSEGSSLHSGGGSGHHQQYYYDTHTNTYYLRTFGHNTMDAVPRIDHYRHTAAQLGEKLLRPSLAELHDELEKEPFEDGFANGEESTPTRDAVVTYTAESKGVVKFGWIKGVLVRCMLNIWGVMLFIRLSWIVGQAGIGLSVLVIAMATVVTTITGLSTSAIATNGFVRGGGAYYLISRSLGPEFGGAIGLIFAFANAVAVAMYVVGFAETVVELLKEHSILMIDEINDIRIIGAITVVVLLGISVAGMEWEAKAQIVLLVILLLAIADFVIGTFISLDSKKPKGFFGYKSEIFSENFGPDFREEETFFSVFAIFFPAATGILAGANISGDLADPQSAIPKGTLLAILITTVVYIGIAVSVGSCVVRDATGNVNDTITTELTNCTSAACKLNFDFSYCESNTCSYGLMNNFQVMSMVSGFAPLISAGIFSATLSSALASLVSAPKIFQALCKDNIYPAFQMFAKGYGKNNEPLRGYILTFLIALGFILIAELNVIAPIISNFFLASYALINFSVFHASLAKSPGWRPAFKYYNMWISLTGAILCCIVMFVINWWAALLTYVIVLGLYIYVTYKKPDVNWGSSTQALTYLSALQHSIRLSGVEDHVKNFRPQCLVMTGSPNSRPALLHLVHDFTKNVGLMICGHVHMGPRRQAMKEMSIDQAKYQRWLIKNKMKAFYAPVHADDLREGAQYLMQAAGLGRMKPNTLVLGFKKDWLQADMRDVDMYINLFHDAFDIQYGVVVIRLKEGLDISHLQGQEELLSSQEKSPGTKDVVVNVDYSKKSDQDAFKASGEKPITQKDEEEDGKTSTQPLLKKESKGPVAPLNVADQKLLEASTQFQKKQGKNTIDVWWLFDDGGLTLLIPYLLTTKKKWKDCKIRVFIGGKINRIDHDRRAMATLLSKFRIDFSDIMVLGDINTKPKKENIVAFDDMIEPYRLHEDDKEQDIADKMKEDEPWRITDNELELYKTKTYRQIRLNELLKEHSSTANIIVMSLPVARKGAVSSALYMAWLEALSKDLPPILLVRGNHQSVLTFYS
# ASSAY_DETAILS: Na+K+Cl− cotransporter assay, 86Rb uptake in A7r5 cells
# Type: cell-based
# DETAILS: 10 μM, 10 minutes at 37° C.
Recorded % Inhibition of Control Values, one value per entry.

SAMPLE_SMILES | ASSAY_TARGET | % Inhibition of Control Values
CCCCCCCCCCOC(=O)c1cc(NCCCC)c(Oc2ccccc2)c(S(N)(=O)=O)c1 | Na+K+Cl− co-transporter (Rattus norvegicus, UniProt E9PTX9) | 16%
CCCCNc1cc(C(=O)NCc2ccccc2)cc(S(N)(=O)=O)c1Oc1ccccc1 | Na+K+Cl− co-transporter (Rattus norvegicus, UniProt E9PTX9) | 13%
CCCCNc1cc(C(=O)N[C@@H](C)c2ccccc2)cc(S(N)(=O)=O)c1Oc1ccccc1 | Na+K+Cl− co-transporter (Rattus norvegicus, UniProt E9PTX9) | 27%
CCCCNc1cc(C(=O)NN2CCOCC2)cc(S(N)(=O)=O)c1Oc1ccccc1 | Na+K+Cl− co-transporter (Rattus norvegicus, UniProt E9PTX9) | 20%

###

# ASSAY_TARGET: Na+K+Cl− co-transporter (Rattus norvegicus, UniProt E9PTX9)
# Construct: endogenous in cells; host or cells: A7r5 cells
# ASSAY_DETAILS: Na+K+Cl− cotransporter assay, 86Rb uptake in A7r5 cells
# Format: cell-based
# DETAILS: 10 μM, 10 minutes at 37° C.
# Protocol: Na^+K^+Cl^− co-transporter activity was measured in vitro in A7r5 cells by measuring their uptake of ^86Rb (0.2 μCi) in 10 minutes at 37° C. as detected by scintillation counting. See Chassande, et al. (1988) “The Na^+/K^+/Cl^− Cotransport in C6 glioma cells. Properties and role in volume regulation.” Eur. J. Biochem. 171: 425433.
For each record, check the reported % of Control Value: if it is below 80% write Criterion met, else write Criterion not met.

SAMPLE_SMILES | CLASS_NAME
CCCCNc1cc(C(=O)NC)cc(S(N)(=O)=O)c1Oc1ccccc1 | Criterion not met
CCCCNc1cc(C(=O)O[C@H](C)c2ccccc2)cc(S(N)(=O)=O)c1Oc1ccccc1 | Criterion met
CCCCNc1cc(C(=O)N[C@@H](C)c2ccccc2)cc(S(N)(=O)=O)c1Oc1ccccc1 | Criterion met
CCCCCCCCCCOC(=O)c1cc(NCCCC)c(Oc2ccccc2)c(S(N)(=O)=O)c1 | Criterion not met
CCCCNc1cc(C(=O)OCC=C(C)C)cc(S(N)(=O)=O)c1Oc1ccccc1 | Criterion not met
CCCCNc1cc(C(=O)NCc2ccccc2)cc(S(N)(=O)=O)c1Oc1ccccc1 | Criterion not met
